Hey, just so you know, these numbers are from patent US20120253008A1.

Target: T1, human serum albumin (human, UniProt P02768 25-609)
T1 construct: also called HSA
Assay: phage competition ELISA: phage pre-incubated with 2 µM HSA, captured on coated HSA
measured.property: Ratio 2 µM/0 µM HSA
Lab note: record just the number, no unit beside it.

As a guide, the following entries are already answered.
{"columns": ["binder", "Ratio 2 µM/0 µM HSA"],
 "data": [
  ["AARSWDFDVFGGGTPVGG [59H12]", 0.87],
  ["AARYWDYDVFGGGTPVGG (also called EXP56E4) [PMP56E4]", 0.82]
]}

Data request: Complete the entry with Ratio 2 µM/0 µM HSA for AARDWDFDVFGGGTPVGG [59C2]
Data returned: 0.91

Data request: Return value of Ratio 2 µM/0 µM HSA for input AARYWDFDVFGGGTPVGG [59F2] , no commentary.
Data returned: 0.69
